Target: Metabotropic glutamate receptor 6 (Homo sapiens, UniProt O15303)
Sequence (O15303 whole entry): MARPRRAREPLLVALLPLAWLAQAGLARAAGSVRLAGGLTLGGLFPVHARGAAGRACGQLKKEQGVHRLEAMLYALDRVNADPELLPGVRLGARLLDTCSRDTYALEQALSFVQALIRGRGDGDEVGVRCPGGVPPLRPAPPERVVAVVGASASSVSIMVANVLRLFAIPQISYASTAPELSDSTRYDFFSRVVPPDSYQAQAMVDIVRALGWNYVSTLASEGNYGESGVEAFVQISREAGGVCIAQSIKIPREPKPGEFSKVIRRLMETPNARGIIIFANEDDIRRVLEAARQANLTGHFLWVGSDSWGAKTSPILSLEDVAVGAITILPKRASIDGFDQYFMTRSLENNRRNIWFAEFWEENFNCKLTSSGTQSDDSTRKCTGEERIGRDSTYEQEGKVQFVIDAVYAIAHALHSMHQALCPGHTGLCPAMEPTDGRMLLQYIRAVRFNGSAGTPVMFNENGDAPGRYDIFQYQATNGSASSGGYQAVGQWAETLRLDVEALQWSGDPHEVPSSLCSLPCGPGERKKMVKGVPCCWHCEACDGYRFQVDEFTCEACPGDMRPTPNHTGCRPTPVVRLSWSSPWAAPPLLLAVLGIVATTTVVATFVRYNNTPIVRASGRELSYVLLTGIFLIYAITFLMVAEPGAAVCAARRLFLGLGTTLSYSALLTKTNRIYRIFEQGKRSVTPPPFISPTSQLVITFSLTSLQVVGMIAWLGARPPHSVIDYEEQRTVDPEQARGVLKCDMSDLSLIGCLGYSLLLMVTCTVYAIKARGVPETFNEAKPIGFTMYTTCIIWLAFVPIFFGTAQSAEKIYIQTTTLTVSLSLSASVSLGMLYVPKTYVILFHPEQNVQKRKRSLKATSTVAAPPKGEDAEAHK
Run description: Positive allosteric modulation of mGluR6 (unknown origin) by calcium mobilization assay
Value kind: EC50

Form: molecule = Cc1ccc2c(c1)C(=O)N(c1ccc(NC(=O)c3occc3C)c(F)c1)C2=O ; EC50 = > 30 µM

====

Target: UniProt:Q13255
Sequence (Q13255 whole entry): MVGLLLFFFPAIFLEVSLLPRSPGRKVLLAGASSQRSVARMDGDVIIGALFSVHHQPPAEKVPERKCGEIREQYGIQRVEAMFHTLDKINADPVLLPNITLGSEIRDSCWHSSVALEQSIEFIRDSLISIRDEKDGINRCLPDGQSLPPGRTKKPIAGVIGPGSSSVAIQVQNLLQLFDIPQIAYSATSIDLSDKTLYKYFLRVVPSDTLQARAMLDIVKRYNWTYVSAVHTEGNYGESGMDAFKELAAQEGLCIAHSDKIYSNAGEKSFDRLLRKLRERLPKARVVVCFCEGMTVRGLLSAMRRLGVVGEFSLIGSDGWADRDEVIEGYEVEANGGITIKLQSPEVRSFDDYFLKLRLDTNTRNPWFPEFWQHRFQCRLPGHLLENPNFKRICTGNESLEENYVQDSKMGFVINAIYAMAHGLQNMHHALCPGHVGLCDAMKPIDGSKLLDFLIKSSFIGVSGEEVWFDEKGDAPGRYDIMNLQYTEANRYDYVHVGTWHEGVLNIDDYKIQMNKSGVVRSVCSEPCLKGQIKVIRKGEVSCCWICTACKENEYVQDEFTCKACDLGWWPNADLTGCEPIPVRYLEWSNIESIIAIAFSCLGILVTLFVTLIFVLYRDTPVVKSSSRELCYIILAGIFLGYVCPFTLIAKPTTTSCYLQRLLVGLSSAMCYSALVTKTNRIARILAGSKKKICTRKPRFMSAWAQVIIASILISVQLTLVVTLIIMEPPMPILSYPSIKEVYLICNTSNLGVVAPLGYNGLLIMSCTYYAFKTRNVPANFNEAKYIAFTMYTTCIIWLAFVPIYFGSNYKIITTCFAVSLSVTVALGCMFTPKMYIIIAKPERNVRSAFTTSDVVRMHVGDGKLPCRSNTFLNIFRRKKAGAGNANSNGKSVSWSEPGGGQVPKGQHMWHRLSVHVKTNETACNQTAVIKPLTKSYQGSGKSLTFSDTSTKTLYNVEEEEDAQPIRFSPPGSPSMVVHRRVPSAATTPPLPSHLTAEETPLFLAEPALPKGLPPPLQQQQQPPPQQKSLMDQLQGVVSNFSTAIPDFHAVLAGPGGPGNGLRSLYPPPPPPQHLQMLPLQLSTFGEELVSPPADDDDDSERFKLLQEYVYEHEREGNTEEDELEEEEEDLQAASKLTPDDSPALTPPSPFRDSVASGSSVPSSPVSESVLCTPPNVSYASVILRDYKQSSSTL
Run description: Positive allosteric modulation of human mGluR1 in presence of EC20 concentration of glutamate by calcium mobilization assay
Format: functional
pEC50: −log10 of the molar value.
Would you mind telling me the reported pEC50 of each entry?

The recorded pEC50 for entry Cc1ccoc1C(=O)Nc1cc(F)c(N2C(=O)c3ccccc3C2=O)c(F)c1 equals < 5.00

Summary for this compound, Cc1nc(C(=O)Nc2cc(F)c(N3C(=O)C4=C(CCCC4)C3=O)cc2C)cs1 : pEC50 is < 5.00

Please fill in: pEC50 reported for Cc1ccoc1C(=O)Nc1c(F)cc(N2C(=O)c3ccccc3C2=O)cc1F = < 5.00

The value of pEC50 measured for the compound Cc1ccc2c(c1)C(=O)N(c1ccc(NC(=O)c3occc3C)c(F)c1)C2=O turned out to be 7.66

Given item Cc1cc(N2C(=O)C3=C(CCCC3)C2=O)c(F)cc1NC(=O)c1ccc(Cl)o1 , the value recorded as its pEC50 is < 5.00

Measured pEC50, Cc1ccoc1C(=O)Nc1c(F)cc(N2C(=O)C3=C(CCCC3)C2=O)c(F)c1F : < 5.00

Memo: Cc1ccoc1C(=O)Nc1c(F)cc(N2C(=O)[C@H]3CC=CC[C@H]3C2=O)c(F)c1F , reported pEC50: < 5.00

For record Cc1ccoc1C(=O)Nc1ccc(N2C(=O)c3ccccc3C2=O)c(C#N)c1 the listed pEC50 is < 5.00

According to the records, this compound Cc1ccoc1C(=O)Nc1c(F)cc(N2C(=O)c3ccc(Cl)cc3C2=O)c(F)c1F displays pEC50 of < 5.00

====

Target: Metabotropic glutamate receptor 2 (Homo sapiens)
Sequence (Q14416 whole entry): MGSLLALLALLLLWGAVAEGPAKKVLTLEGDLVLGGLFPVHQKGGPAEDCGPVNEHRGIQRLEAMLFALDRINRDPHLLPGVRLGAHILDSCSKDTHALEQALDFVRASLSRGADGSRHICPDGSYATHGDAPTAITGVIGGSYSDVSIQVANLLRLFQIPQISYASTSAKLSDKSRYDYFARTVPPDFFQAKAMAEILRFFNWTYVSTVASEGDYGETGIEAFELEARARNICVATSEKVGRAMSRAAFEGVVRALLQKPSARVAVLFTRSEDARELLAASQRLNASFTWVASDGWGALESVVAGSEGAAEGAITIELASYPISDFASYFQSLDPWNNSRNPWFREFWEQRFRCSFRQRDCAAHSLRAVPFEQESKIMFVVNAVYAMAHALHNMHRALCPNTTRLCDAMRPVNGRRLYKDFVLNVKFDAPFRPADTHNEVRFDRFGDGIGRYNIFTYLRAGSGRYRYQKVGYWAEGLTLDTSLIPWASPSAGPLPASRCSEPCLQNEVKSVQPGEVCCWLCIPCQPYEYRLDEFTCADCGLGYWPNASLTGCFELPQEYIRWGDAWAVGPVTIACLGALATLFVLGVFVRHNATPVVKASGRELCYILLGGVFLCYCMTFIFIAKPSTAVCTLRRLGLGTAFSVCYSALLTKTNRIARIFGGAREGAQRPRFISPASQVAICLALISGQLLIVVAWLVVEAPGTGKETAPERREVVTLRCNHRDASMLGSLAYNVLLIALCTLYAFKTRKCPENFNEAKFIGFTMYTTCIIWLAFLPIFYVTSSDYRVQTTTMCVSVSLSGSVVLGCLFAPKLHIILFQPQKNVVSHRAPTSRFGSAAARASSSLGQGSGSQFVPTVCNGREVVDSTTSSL
Run description: Positive allosteric modulation of mGluR2 (unknown origin) by calcium mobilization assay
pEC50: −log10 of the molar value.
Value kind: pEC50

For record Cc1ccc2c(c1)C(=O)N(c1ccc(NC(=O)c3occc3C)c(F)c1)C2=O the listed pEC50 is < 4.52

====

Target: Metabotropic glutamate receptor 5 (Homo sapiens, UniProt P41594)
Sequence (P41594 whole entry): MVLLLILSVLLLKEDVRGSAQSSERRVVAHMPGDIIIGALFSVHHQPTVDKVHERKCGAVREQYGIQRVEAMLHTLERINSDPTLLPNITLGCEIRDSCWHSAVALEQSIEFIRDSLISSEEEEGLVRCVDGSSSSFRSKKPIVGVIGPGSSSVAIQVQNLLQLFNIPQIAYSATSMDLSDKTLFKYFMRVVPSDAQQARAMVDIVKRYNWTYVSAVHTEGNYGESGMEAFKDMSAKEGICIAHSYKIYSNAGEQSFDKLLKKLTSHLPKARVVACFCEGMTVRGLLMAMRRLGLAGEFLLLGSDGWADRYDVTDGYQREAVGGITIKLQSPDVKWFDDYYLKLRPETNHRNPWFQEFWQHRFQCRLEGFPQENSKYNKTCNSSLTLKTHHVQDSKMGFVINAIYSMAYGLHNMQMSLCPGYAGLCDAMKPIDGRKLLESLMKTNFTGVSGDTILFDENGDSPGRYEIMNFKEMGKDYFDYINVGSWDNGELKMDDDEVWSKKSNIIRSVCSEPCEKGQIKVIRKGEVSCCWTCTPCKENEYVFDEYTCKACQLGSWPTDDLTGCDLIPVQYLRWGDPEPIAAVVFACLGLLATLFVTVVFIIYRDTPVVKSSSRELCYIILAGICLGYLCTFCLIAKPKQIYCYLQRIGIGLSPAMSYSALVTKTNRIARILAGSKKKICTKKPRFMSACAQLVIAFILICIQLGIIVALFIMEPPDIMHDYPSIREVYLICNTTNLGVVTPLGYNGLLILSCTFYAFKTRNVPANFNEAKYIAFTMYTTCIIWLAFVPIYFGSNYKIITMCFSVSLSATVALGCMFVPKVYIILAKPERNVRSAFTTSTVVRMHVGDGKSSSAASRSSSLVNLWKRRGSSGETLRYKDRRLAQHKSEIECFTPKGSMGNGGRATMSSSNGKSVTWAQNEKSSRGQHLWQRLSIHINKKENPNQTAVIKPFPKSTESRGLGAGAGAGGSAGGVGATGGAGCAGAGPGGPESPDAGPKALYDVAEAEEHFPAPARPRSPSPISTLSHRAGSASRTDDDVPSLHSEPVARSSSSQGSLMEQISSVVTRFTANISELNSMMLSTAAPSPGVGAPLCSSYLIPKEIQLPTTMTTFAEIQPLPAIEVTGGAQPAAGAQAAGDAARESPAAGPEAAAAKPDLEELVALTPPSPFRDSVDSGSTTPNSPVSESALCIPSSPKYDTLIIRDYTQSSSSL
Run description: Positive allosteric modulation of mGluR5 (unknown origin) by calcium mobilization assay
pEC50: −log10 of the molar value.
Value kind: pEC50

// pEC50 lookup, compound = Cc1ccc2c(c1)C(=O)N(c1ccc(NC(=O)c3occc3C)c(F)c1)C2=O , result: < 4.52

====

Assignment: determine reported EC50 for the given molecules.
Target: Metabotropic glutamate receptor 7 (Homo sapiens, UniProt Q14831)
Sequence (Q14831 whole entry): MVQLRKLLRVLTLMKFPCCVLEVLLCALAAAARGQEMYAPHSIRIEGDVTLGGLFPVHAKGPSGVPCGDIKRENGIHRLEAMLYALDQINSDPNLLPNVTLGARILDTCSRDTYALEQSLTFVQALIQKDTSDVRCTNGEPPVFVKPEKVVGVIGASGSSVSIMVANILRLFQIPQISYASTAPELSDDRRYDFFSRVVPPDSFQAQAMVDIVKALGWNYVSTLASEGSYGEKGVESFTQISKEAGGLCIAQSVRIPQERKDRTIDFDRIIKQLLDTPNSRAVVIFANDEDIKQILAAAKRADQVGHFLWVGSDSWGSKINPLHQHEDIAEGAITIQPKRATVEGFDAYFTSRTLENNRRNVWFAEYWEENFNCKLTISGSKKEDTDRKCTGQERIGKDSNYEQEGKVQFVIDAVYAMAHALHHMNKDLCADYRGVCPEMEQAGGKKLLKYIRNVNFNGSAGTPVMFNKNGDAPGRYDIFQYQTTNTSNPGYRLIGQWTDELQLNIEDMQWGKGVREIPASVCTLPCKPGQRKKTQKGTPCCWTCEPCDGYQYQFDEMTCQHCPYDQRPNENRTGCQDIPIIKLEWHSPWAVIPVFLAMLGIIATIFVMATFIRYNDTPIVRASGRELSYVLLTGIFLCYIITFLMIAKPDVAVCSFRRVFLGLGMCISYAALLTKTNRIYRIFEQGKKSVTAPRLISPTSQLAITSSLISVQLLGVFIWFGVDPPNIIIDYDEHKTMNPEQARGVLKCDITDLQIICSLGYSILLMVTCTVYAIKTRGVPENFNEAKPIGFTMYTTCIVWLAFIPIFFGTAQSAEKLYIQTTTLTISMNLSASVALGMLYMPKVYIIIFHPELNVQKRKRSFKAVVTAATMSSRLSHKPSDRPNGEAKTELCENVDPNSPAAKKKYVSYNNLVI
Run description: Positive allosteric modulation of human mGluR7 in presence of EC20 concentration of L-AP4 by calcium mobilization assay

Record Cc1cc(N2C(=O)C3=C(CCCC3)C2=O)c(F)cc1NC(=O)c1ccc(Cl)o1 . Reported EC50: 400 nM

Value of EC50 reported for the molecule Cc1ccc2c(c1)C(=O)N(c1ccc(NC(=O)c3occc3C)c(F)c1)C2=O is > 30000 nM

Per the record, Cc1cc(N2C(=O)C3=C(CCCC3)C2=O)c(F)cc1NC(=O)c1ccco1 has EC50 of 377 nM

The value of EC50 measured for the molecule Cc1nc(C(=O)Nc2cc(F)c(N3C(=O)C4=C(CCCC4)C3=O)cc2C)cs1 turned out to be 1340 nM

Kindly note the recorded EC50 for Cc1cc(N2C(=O)C3=C(CCCC3)C2=O)c(F)cc1NC(=O)c1occc1C , which is 372 nM
